Test system: barnyardgrass
procedure details: Test A postemergence
Assay type: in vivo, Echinochloa crus-galli
experimental parameters: Postemergence, 1000 g ai/ha; visual rating after approx. 10 days, 0 to 100 scale (0 no effect, 100 complete control)
# Lookup of reported Barnyardgrass plant response rating keyed by entry

[[record]]
chem_smiles = "CCc1cc(C(=O)NCC(C)C)nn1Cc1cccc(C(F)(F)F)c1"
endpoint_result = 20

[[record]]
chem_smiles = "CCc1cc(C(=O)NCCC(F)(F)F)nn1Cc1cccc(OC(F)(F)F)c1"
endpoint_result = 10

[[record]]
chem_smiles = "CCCc1cc(C(=O)NCC(F)(F)F)nn1Cc1cccc(C(F)(F)F)c1"
endpoint_result = 60


Qu. Reported Barnyardgrass plant response rating for `CCCCNC(=O)c1cc(CC)n(Cc2cccc(OC(F)(F)F)c2)n1` : what is it?
Ans. 10

Qu. Reported Barnyardgrass plant response rating for `CCc1cc(C(=O)NCC(F)(F)F)nn1Cc1cccc(C(F)(F)F)c1` : what is it?
Ans. 50

Qu. Reported Barnyardgrass plant response rating for `CCCc1cc(C(=O)NCC)nn1Cc1cccc(C(F)(F)F)c1` : what is it?
Ans. 80

Qu. Reported Barnyardgrass plant response rating for `CCc1cc(C(=O)NC)nn1Cc1cccc(C(F)(F)F)c1` : what is it?
Ans. 10

---

# Lookup of reported Plant response rating, Chickweed keyed by entry
System: chickweed
procedure details: Test C postemergence
Type: in vivo, Stellaria media
experimental parameters: postemergence, 250 g ai/ha; scale 0 to 100 (0 no effect, 100 complete control)
Keep the answer to the number alone.

Some solved cases for reference:
[[record]]
chem_smiles = "CCc1cc(C(=O)NC2CC2)nn1Cc1ccnc(OC(F)F)c1"
target_of_assay = "chickweed"
endpoint_result = 100

[[record]]
chem_smiles = "CCc1cc(C(=O)NCC2CC2)nn1Cc1ccnc(C(F)(F)F)c1"
target_of_assay = "chickweed"
endpoint_result = 80


Qu. Reported Plant response rating, Chickweed for `CCNC(=O)c1cc(CC)n(Cc2ccnc(OC(F)F)c2)n1` : what is it?
Ans. 75

Qu. Reported Plant response rating, Chickweed for `CCCc1cc(C(=O)NCC)nn1Cc1cc(C(F)(F)F)nn1C` : what is it?
Ans. 100

Qu. Reported Plant response rating, Chickweed for `CCNC(=O)c1cc(CC)n(Cc2ccnc(C(F)(F)F)c2)n1` : what is it?
Ans. 80

Qu. Reported Plant response rating, Chickweed for `CCOc1cc(C(=O)NCC(F)(F)F)nn1Cc1ccnc(C(F)(F)F)c1` : what is it?
Ans. 90

---

Test system: foxtail, giant
procedure details: Test A postemergence
Assay type: in vivo, Setaria faberii
experimental parameters: postemergence, 125 g ai/ha, about 10 days, visual rating on 0 to 100 scale (0 no effect, 100 complete control)
# Lookup of reported Foxtail, Giant plant response rating keyed by entry
Keep the answer to the number alone.

[[record]]
compound = "CCc1cc(C(=O)NC(C)C)nn1Cc1cc(OC(F)F)nn1C [Compound 137]"
endpoint_result = 10

[[record]]
compound = "CCc1cc(C(=O)NCC(F)(F)F)nn1Oc1ccnc(C(F)(F)F)c1 [Compound 84]"
endpoint_result = 10

[[record]]
compound = "CCc1cc(-c2ccc(Br)cc2)nn1Cc1ccnc(C(F)(F)F)c1 [Compound 112]"
endpoint_result = 10

[[record]]
compound = "CCCNC(=O)c1cc(C)n(Oc2ccnc(C(F)(F)F)c2)n1 [Compound 80]"
endpoint_result = 10


For the next question, use this compound.
Qu. Reported Foxtail, Giant plant response rating for CCCCc1cc(C(=O)NC2CC2)nn1Cc1ccnc(C(F)(F)F)c1 [Compound 151] : what is it?
Ans. 20

---

# Lookup of reported Foxtail, Giant plant response rating keyed by entry
Test system: foxtail, giant
procedure details: Test A preemergence
Assay type: in vivo, Setaria faberii
experimental parameters: preemergence, 500 g ai/ha, visual injury after approx. 10 days, 0 to 100 scale (0 no effect, 100 complete control)
Keep the answer to the number alone.

Some solved cases for reference:
[[record]]
chem_smiles = "CCc1cc(-c2ccc(C(F)(F)F)cc2)nn1Cc1nc(C(F)(F)F)nn1C"
endpoint_result = 90

[[record]]
chem_smiles = "CCc1cc(C(=O)NCC(F)(F)F)nn1Oc1cccc(C(F)(F)F)n1"
endpoint_result = 0

[[record]]
chem_smiles = "CCCc1cc(C(=O)NCC(F)(F)F)nn1Cc1ccnc(C(F)(F)F)c1"
endpoint_result = 100

[[record]]
chem_smiles = "CCOc1cc(C(=O)NC2CC2)nn1Cc1ccnc(OC(F)F)c1"
endpoint_result = 100

[[record]]
chem_smiles = "CCc1cc(C(=O)NC(C)C)nn1Cc1ccnc(C(F)(F)F)c1"
endpoint_result = 100


Qu. Reported Foxtail, Giant plant response rating for `CCCc1cc(C(=O)NCC(F)(F)F)nn1Oc1ccnc(C(F)(F)F)c1` : what is it?
Ans. 100

Qu. Reported Foxtail, Giant plant response rating for `CCc1cc(C(=O)NN(C)C)nn1Cc1ccnc(C(F)(F)F)c1` : what is it?
Ans. 0

Qu. Reported Foxtail, Giant plant response rating for `CCONC(=O)c1cc(OCC)n(Cc2ccnc(C(F)(F)F)c2)n1` : what is it?
Ans. 90

Qu. Reported Foxtail, Giant plant response rating for `CCCNC(=O)c1cc(CCCl)n(Cc2ccnc(C(F)(F)F)c2)n1` : what is it?
Ans. 100

Qu. Reported Foxtail, Giant plant response rating for `CCCCc1cc(C(=O)NCCC)nn1Cc1ccnc(C(F)(F)F)c1` : what is it?
Ans. 90

Qu. Reported Foxtail, Giant plant response rating for `CCc1cc(C(=O)NCC(F)(F)F)nn1Cc1cc(C(F)(F)F)nn1CC` : what is it?
Ans. 80

Qu. Reported Foxtail, Giant plant response rating for `CCc1cc(C(=O)NC(C)C)nn1Cc1cc(C(F)(F)F)nn1C(C)C` : what is it?
Ans. 0

Qu. Reported Foxtail, Giant plant response rating for `CCCNC(=O)c1cc(CC)n(Cc2nc(C(F)(F)F)no2)n1` : what is it?
Ans. 70

Qu. Reported Foxtail, Giant plant response rating for `CCc1cc(C(=O)NCC2CC2)nn1Cc1ccnc(C(F)(F)F)c1` : what is it?
Ans. 100

Qu. Reported Foxtail, Giant plant response rating for `CCc1cc(C(=O)NC(C)C)nn1Cc1cc(OC(F)F)nn1C` : what is it?
Ans. 80

Qu. Reported Foxtail, Giant plant response rating for `CCCCc1cc(C(=O)NC2CC2)nn1Cc1ccnc(C(F)(F)F)c1` : what is it?
Ans. 100

Qu. Reported Foxtail, Giant plant response rating for `O=C(NC1CC1)c1cc(Br)n(Cc2cccc(C(F)(F)F)c2)n1` : what is it?
Ans. 60

Qu. Reported Foxtail, Giant plant response rating for `CCCc1cc(C(=O)Nc2ccc(F)cc2)nn1Cc1cc(C(F)(F)F)nn1C` : what is it?
Ans. 20

Qu. Reported Foxtail, Giant plant response rating for `CCc1cc(C(=O)NCC(F)(F)F)nn1Cc1ccnc(OCC(F)(F)F)c1` : what is it?
Ans. 100

Qu. Reported Foxtail, Giant plant response rating for `CCCNC(=O)c1cc(CC)n(Cc2cc(C(F)(F)F)nn2C(C)C)n1` : what is it?
Ans. 0

---

Tested on: rice
procedure details: Test C flooded paddy test
Format: in vivo, Oryza sativa
experimental parameters: Flood, 62 g ai/ha; scale 0 to 100 (0 no effect, 100 complete control)
From the text: At time of treatment, test pots were flooded to 3 cm above the soil surface, treated by application of test compounds directly to the paddy water, and then maintained at that water depth for the duration of the test. Treated plants and controls were maintained in a greenhouse for 13 to 15 days, after which time all species were compared to controls and visually evaluated. […] A dash (-) response means no test result.
measure name: Plant response rating, Rice
Keep the answer to the number alone.

Some solved cases for reference:
[[record]]
chem_smiles = "CCNC(=O)c1cc(C)n(Cc2cccc(OC(F)(F)F)c2)n1"
target_of_assay = "rice"
measure_name = "Plant response rating, Rice"
endpoint_result = 0

[[record]]
chem_smiles = "CCc1cc(C(=O)NC2CC2)nn1Cc1cc(C(F)(F)C(F)(F)F)nn1C"
target_of_assay = "rice"
measure_name = "Plant response rating, Rice"
endpoint_result = 0

[[record]]
chem_smiles = "CCONC(=O)c1cc(C)n(Cc2cccc(OC(F)(F)F)c2)n1"
target_of_assay = "rice"
measure_name = "Plant response rating, Rice"
endpoint_result = 0


Qu. Form field: Plant response rating, Rice recorded for `CCCNC(=O)c1cc(CCCl)n(Cc2ccnc(C(F)(F)F)c2)n1` with rice (enter value)
Ans. 20

Qu. Form field: Plant response rating, Rice recorded for `CCONC(=O)c1cc(OCC)n(Cc2ccnc(C(F)(F)F)c2)n1` with rice (enter value)
Ans. 0

Qu. Form field: Plant response rating, Rice recorded for `CNC(=O)c1cc(C)n(Cc2cccc(OC(F)(F)F)c2)n1` with rice (enter value)
Ans. 0
